# Test system: G. lamblia strain CBG99
# assay.explanation: G. lamblia CBG99 luciferase reporter trophozoite growth assay
# Type: cell-based, Giardia lamblia
# measurement.context: Giardia duodenalis
Recorded measurements of pEC50, one per entry
Friendly reminder that pEC50 comes from taking -log10 of the concentration in mol/L.

| compound | pEC50 |
| --- | --- |
| CC(C)C(=O)c1nc2ccccc2c(=O)n1C1CC2(OC1=O)c1ccccc1N1C(=O)C(C)(C)NC12 (stereo not shown) [J36B] | 7.36 |
| COC1=CC(=O)C[C@@H](C)[C@]12Oc1c(Cl)c(OC)cc(OC)c1C2=O [J16K, Griseofulvin] | 5.10 |
| COC12OC1(C13OC1(OC)C(=O)c1cc4cc(C)oc(=O)c4c(O)c1C3O)C(O)c1c(cc3cc(C)oc(=O)c3c1O)C2=O (stereo not shown) [J16R, Xanthoepocin] | 6.84 |

# CC1(C)C(=O)N2c3ccccc3C3(CC(n4cnc5ccccc5c4=O)C(=O)O3)C2N1O (stereo not shown) [J16L, Tryptoquivaline L] with G. lamblia strain CBG99: pEC50 is 5.15

====

# assay.system: G. lamblia strain CBG99
# assay.explanation: G. lamblia CBG99 luciferase reporter trophozoite growth assay
# Format: cell-based, Giardia lamblia
# measurement.context: G. lamblia trophozoite growth in vitro, Table 2; read-out: EC50 ± SD
Recorded measurements of EC50, one per entry
Respond with the bare value in µM.

Guide cases for EC50, answers given:
| chemical.smiles | experimental.result |
| --- | --- |
| CC(=O)OC(C)(C)[C@H]1O[C@H]2CC[C@@]3(C)[C@@](O)(CC[C@H]4Cc5c([nH]c6ccccc56)[C@@]43C)C2=CC1=O | 3.4 |
| C[C@@H]1N[C@H]2N(C1=O)c1ccccc1[C@@]21C[C@@H]2C(=O)N[C@@](C)(O1)c1nc3ccccc3c(=O)n12 | 6.92 |
| C=C1CC[C@@H](OC(=O)/C=C/C=C/C=C/C=C/C(=O)O)[C@@H](OC)[C@H]1[C@@]1(C)O[C@@H]1CC=C(C)C | 3.09 |

The molecule listed as `COC(=O)c1c(Sc2c(O)cc3oc4cc(C)cc(O)c4c(=O)c3c2C(=O)OC)c(O)cc(OC)c1C(=O)c1c(O)cc(C)cc1O` shows EC50 equal to 3.21

====

# System: G. lamblia strain CBG99
# assay.explanation: G. lamblia CBG99 luciferase reporter trophozoite growth assay
# Assay type: cell-based, Giardia lamblia
# measurement.context: Giardia duodenalis
assay.endpoint: EC50
Your answer should be a number followed by the unit of measure.

| compound | EC50 |
| --- | --- |
| CC(=O)ON1C2N(C(=O)C1(C)C)c1ccccc1C21CC(n2c(C(O)C(C)C)nc3ccccc3c2=O)C(=O)O1 (stereo not drawn) [J36C, isotryptoquivaline] | 840 nM |

The compound listed as CC(C)C1NC(=O)C(CC2(O)c3ccccc3N3C(=O)C(C)(C)NC32)n2c1nc1ccccc1c2=O (stereo not drawn) [J16E, epi-Fiscalin C] shows EC50 equal to 555 nM

The compound listed as CC(C)=C1NC(=O)C(CC2(O)c3ccccc3N3C(=O)C(C)(C)NC32)n2c1nc1ccccc1c2=O (stereo not drawn) [J16M, Quinadoline A] shows EC50 equal to 3290 nM

====

# Tested on: G. lamblia strain CBG99
# assay.explanation: G. lamblia CBG99 luciferase reporter trophozoite growth assay
# Assay type: cell-based, Giardia lamblia
# measurement.context: pNP tested at 10 μM, G. lamblia growth, primary screen
Recorded measurements of % inhibition at 10 μM, one per entry
Respond with the bare value in %.

Guide cases for % inhibition at 10 μM, answers given:
| chemical.smiles | % inhibition at 10 μM (%) |
| --- | --- |
| COC(=O)c1c(Sc2c(O)cc3oc4cc(C)cc(O)c4c(=O)c3c2C(=O)OC)c(O)cc(OC)c1C(=O)c1c(O)cc(C)cc1O | 82 |
| C=C1CC[C@@H](OC(=O)/C=C/C=C/C=C/C=C/C(=O)O)[C@@H](OC)[C@H]1[C@@]1(C)O[C@@H]1CC=C(C)C | 88 |
| CC(=O)OC(C)(C)[C@H]1O[C@H]2CC[C@@]3(C)[C@@](O)(CC[C@H]4Cc5c([nH]c6ccccc56)[C@@]43C)C2=CC1=O | 82 |

Field: next molecule
The molecule listed as `C[C@@H]1N[C@H]2N(C1=O)c1ccccc1[C@@]21C[C@@H]2C(=O)N[C@@](C)(O1)c1nc3ccccc3c(=O)n12` shows % inhibition at 10 μM equal to 82

Each recorded value in this set is attributed to paper PMC10269678.
